Cited source for all entries: patent US8217073B2

# Test system: Aβ40 secretion
# experiment-description: Aβ40 secretion by H4 cells expressing APP695, sandwich ELISA
# Type: cell-based, human
# protocol-conditions: about 1 μM to about 100 μM, medium collected at 24 or 48 hours, several numbers = independent sets of assays
pIC50: −log10 of the molar value.
measured-attribute: pIC50

(1) Cc1c(-c2ccccc2)cc(-c2ccccc2)n1-c1ccc(CCCC(=O)O)cc1
(2) CC(C)(C)Cc1c(-c2ccccc2)cc(-c2ccccc2)n1-c1cccc(CCC(=O)O)c1
Hi! Which is lower in terms of pIC50, the first one 1 or the second one 2 ? API: response body contains the label of the selected item.
1
(1: 4.17, 2: 4.49)

====

# Tested on: Aβ40 secretion
# experiment-description: Aβ40 secretion by H4 cells expressing APP695, sandwich ELISA
# Assay type: cell-based, human
# protocol-conditions: Homo sapiens, about 1 μM to about 100 μM, medium collected at 24 or 48 hours, several numbers = independent sets of assays
pIC50: −log10 of the molar value.
measured-attribute: pIC50

(1) Cc1c(-c2cccc(C(F)(F)F)c2)cc(-c2ccccc2)n1-c1ccc(CCCC(=O)O)cc1
(2) CC(C)c1c(-c2ccccc2)cc(-c2ccccc2)n1-c1ccc(CCCC(=O)O)cc1
(3) Cc1c(-c2ccccc2)cc(-c2ccc(C(F)(F)F)cc2)n1-c1cccc(CCC(=O)O)c1
(4) CC(C)c1c(-c2ccccc2)cc(-c2ccccc2)n1-c1cccc(CCC(=O)O)c1
List the items above again, this time ordered by increasing pIC50. # respond with the labels, arranged in the requested order
3, 2, 4, 1
(3: 4.09, 2: 4.39, 4: 4.64, 1: 4.96)

====

# System: Aβ40 secretion
# experiment-description: Aβ40 secretion by H4 cells expressing APP695, sandwich ELISA
# Format: cell-based, human
# protocol-conditions: about 1 μM to about 100 μM, medium collected at 24 or 48 hours, several numbers = independent sets of assays
measured-attribute: IC50 (µM)

O=C(O)CCCc1ccc(-n2c(-c3ccccc3)cc(-c3ccccc3)c2C2CC2)cc1 | 68

(I) Cc1c(-c2ccccc2)cc(-c2ccc(Cl)c(Cl)c2)n1-c1ccc(CCCC(=O)O)cc1
(II) CC(C)(C)Cc1c(-c2ccccc2)cc(-c2ccccc2)n1-c1ccc(CCCC(=O)O)cc1
(III) CC(C)(C)Cc1c(-c2ccccc2)cc(-c2ccccc2)n1-c1cccc(C(=O)O)c1
Arrange the 3 compounds from largest to smallest IC50. # respond with the labels, arranged in the requested order
I, II, III
(I: 65 µM, II: 37 µM, III: 19 µM)

====

# Test system: Aβ42 secretion
# experiment-description: Aβ42 secretion by H4 cells expressing APP695, sandwich ELISA
# Format: cell-based, human
# protocol-conditions: test compound 100 μM vs DMSO control, medium collected at 24 or 48 hours, several numbers = independent sets of assays
# Protocol: The present invention provides compositions and methods for lowering Aβ42 levels. […] The amyloid peptide standard is reconstituted and frozen samples are thawed. […] 100 μL per well of peptide standards, controls, and dilutions of samples to be analyzed is added. […] 100 μL of stabilized chromogen is added to each well and the liquid in the wells begins to turn blue. […] The plate is read within 2 hours of adding the stop solution. […]
measured-attribute: % Inhibition of Aβ42 Secretion @ 100 μM (%)
Give the quantity in %, number only.

Some entries whose results are on file:
CC(C)(C)Cc1c(-c2ccccc2)cc(-c2ccccc2)n1-c1ccc(CCCC(=O)O)cc1 | 101
CC(C)(C)Cc1c(-c2ccccc2)cc(-c2ccccc2)n1-c1cccc(CCC(=O)O)c1 | 99

# ---- query compound ----
The compound O=C(O)c1cccc(-n2c(-c3ccccc3)cc(-c3ccccc3)c2C2CC2)c1 , when measured on Aβ42 secretion, yielded % Inhibition of Aβ42 Secretion @ 100 μM of 86
